Give ASPARTATE AMINOTRANSFERASE for every item shown.
- Organism: Rattus norvegicus
- Assay details: DrugMatrix - Regimen: Daily Repeat
- Assay type: toxicity, organism-based, Sprague-Dawley
- Set-up: regimen Daily Repeat, gender Male, age 6-8 weeks
- Measurement setup: in vivo, po, 0 mg/kg, 72 h, tissue Plasma, route oral GAVAGE, dose level Control, time 3 day, vehicle 100 % SALINE

The compound CC(=O)OCC(CCn1cnc2cnc(N)nc21)COC(C)=O showed ASPARTATE AMINOTRANSFERASE equal to 78.17 u/L

Per the record, Oc1ccccc1O has ASPARTATE AMINOTRANSFERASE of 78.83 u/L

compound Cc1cc(CC(=O)O)n(C)c1C(=O)c1ccc(Cl)cc1 [ZOMEPIRAC] , ASPARTATE AMINOTRANSFERASE observed: 78.83 u/L

The compound listed as CCCc1nn(C)c2c(=O)[nH]c(-c3cc(S(=O)(=O)N4CCN(C)CC4)ccc3OCC)nc12 shows ASPARTATE AMINOTRANSFERASE equal to 78.17 u/L

----------
- Species: Rattus norvegicus
- Type: toxicity, organism-based, Sprague-Dawley
- Measurement setup: in vivo, po, 0 mg/kg, 24 h, vehicle control, tissue Blood, route oral GAVAGE, dose level Control, time 1 day, […]
- Description: DrugMatrix - Regimen: Single
Can you tell me ABSOLUTE MONOCYTE for the items I'm about to list?

Sure, the documented ABSOLUTE MONOCYTE for CC(CCc1ccc(O)cc1)NCCc1ccc(O)c(O)c1 (stereo not drawn) is 140 cells/µL

The compound listed as CC[C@H](C)C(=O)O[C@H]1C[C@H](O)C=C2C=C[C@H](C)[C@H](CC[C@@H](O)C[C@@H](O)CC(=O)O)[C@H]21 shows ABSOLUTE MONOCYTE equal to 170 cells/µL

In plain terms, CC(C)OC(=O)C(C)(C)Oc1ccc(C(=O)c2ccc(Cl)cc2)cc1 [FENOFIBRATE] has a documented ABSOLUTE MONOCYTE of 220 CELLS/uL

----------
- Organism: Rattus norvegicus
- Assay details: DrugMatrix - Regimen: Daily Repeat
- Assay type: toxicity, organism-based, Sprague-Dawley
- Set-up: regimen Daily Repeat, gender Male, age 6-8 weeks
- Measurement setup: in vivo, ip, 40 mg/kg, […], tissue Blood, route intraperitoneal, dose level High, time 14 day, vehicle 100 % SALINE
Test readout: ABSOLUTE SEGMENTED NEUTROPHIL (cells/µL)
Please state the figure in cells/µL; there is no need to write the unit.

The reported ABSOLUTE SEGMENTED NEUTROPHIL of the compound NC[C@H]1O[C@H](O[C@H]2[C@H](O)[C@@H](O[C@H]3O[C@H](CO)[C@@H](O)[C@H](N)[C@H]3O)[C@H](N)C[C@@H]2N)[C@H](N)C[C@@H]1O was 970

----------
Task for the reader: assign each of the following compounds its reported ABSOLUTE BASOPHIL.
- Species: Rattus norvegicus
- Assay details: DrugMatrix - Regimen: Daily Repeat
- Type: toxicity, organism-based, Sprague-Dawley
- Parameters: regimen Daily Repeat, gender Male, age 6-8 weeks
- Measurement setup: in vivo, po, 0 mg/kg, 120 h, tissue Blood, route oral GAVAGE, dose level Control, time 5 day, vehicle .5 % CMC
Just the number in CELLS/uL, nothing appended.

Field ABSOLUTE BASOPHIL (entry CC(C)(Sc1cc(C(C)(C)C)c(O)c(C(C)(C)C)c1)Sc1cc(C(C)(C)C)c(O)c(C(C)(C)C)c1 [PROBUCOL] ) reads 0

Value of ABSOLUTE BASOPHIL reported for the compound CCCCC1C(=O)N(c2ccccc2)N(c2ccccc2)C1=O [PHENYLBUTAZONE] is 0

Measured ABSOLUTE BASOPHIL of CC(=O)O[C@]1(C(C)=O)CC[C@H]2[C@@H]3C=C(Cl)C4=CC(=O)[C@@H]5C[C@@H]5[C@]4(C)[C@H]3CC[C@@]21C [CYPROTERONE ACETATE] : 0

The compound identified as CO[C@H]1C[C@@H]2CC[C@@H](C)[C@@](O)(O2)C(=O)C(=O)N2CCCC[C@H]2C(=O)O[C@H]([C@H](C)C[C@@H]2CC[C@@H](O)[C@H](OC)C2)CC(=O)[C@H](C)/C=C(\C)[C@@H](O)[C@@H](OC)C(=O)[C@H](C)C[C@H](C)/C=C/C=C/C=C/1C [SIROLIMUS] registered its ABSOLUTE BASOPHIL at 0

Sample C[C@@H]1CC[C@H]2[C@@H](C)C(=O)O[C@@H]3O[C@@]4(C)CC[C@@H]1[C@]32OO4 [ARTEMISININ] ; ABSOLUTE BASOPHIL observed: 0

Recorded ABSOLUTE BASOPHIL (compound CC(C(=O)O)c1ccc(-c2ccccc2)c(F)c1 (stereo not given) [FLURBIPROFEN] ): 0

Notebook: CCOC(=O)[C@H](CCc1ccccc1)N[C@@H](C)C(=O)N1Cc2ccccc2C[C@H]1C(=O)O , ABSOLUTE BASOPHIL read as 0

The recorded ABSOLUTE BASOPHIL for COc1ccccc1OCC(O)COC(N)=O (stereo not given) [METHOCARBAMOL] is 0

Entry under test: C[C@@H](O)[C@H]1C(=O)N2C(C(=O)O)=C(S[C@@H]3CN[C@H](C(=O)N(C)C)C3)[C@H](C)[C@H]12 [MEROPENEM] . Its ABSOLUTE BASOPHIL was 0

Looking up Cc1cnc(C(=O)NCCc2ccc(S(=O)(=O)NC(=O)NC3CCCCC3)cc2)cn1 [GLIPIZIDE] , I see its ABSOLUTE BASOPHIL listed as 0

Recorded result, CN1C(=O)CN=C(c2ccccc2)c2cc(Cl)ccc21 [DIAZEPAM] , ABSOLUTE BASOPHIL: 0

ABSOLUTE BASOPHIL reading for COc1ccc(/C=C/C(=O)Nc2ccccc2C(=O)O)cc1OC : 0

----------
- Species on record: Rattus norvegicus
- Assay details: DrugMatrix - Regimen: Daily Repeat
- Format: toxicity, organism-based, Sprague-Dawley
- Design: regimen Daily Repeat, gender Male, age 6-8 weeks
- Measurement setup: in vivo, po, 0 mg/kg, 72 h, tissue Blood, route oral GAVAGE, dose level Control, time 3 day, vehicle .5 % CMC
Test readout: PLATELET COUNT (x10E3/uL)
# value in x10E3/uL; strip the unit string

Note to self: PLATELET COUNT recorded for CO[C@H]1C[C@@H]2CC[C@@H](C)[C@@](O)(O2)C(=O)C(=O)N2CCCC[C@H]2C(=O)O[C@H]([C@H](C)C[C@@H]2CC[C@@H](O)[C@H](OC)C2)CC(=O)[C@H](C)/C=C(\C)[C@@H](O)[C@@H](OC)C(=O)[C@H](C)C[C@H](C)/C=C/C=C/C=C/1C was 1298

PLATELET COUNT measured on CC(C(=O)O)c1ccc(-c2ccccc2)c(F)c1 (centres undefined) = 1239.5

Record C[C@@H]1CC[C@H]2[C@@H](C)C(=O)O[C@@H]3O[C@@]4(C)CC[C@@H]1[C@]32OO4 , field PLATELET COUNT: 1342

Per the records, this compound ( C[C@@H](O)[C@H]1C(=O)N2C(C(=O)O)=C(S[C@@H]3CN[C@H](C(=O)N(C)C)C3)[C@H](C)[C@H]12 ) has PLATELET COUNT equal to 1239.5

Entry under test: Clc1cc2c(cc1Cl)Oc1cc(Cl)c(Cl)cc1O2 . Its PLATELET COUNT was 1225.83

# PLATELET COUNT (compound: CN1C(=O)CN=C(c2ccccc2)c2cc(Cl)ccc21 ) is 1250.83

Item: COc1ccccc1OCC(O)COC(N)=O (centres undefined) | PLATELET COUNT: 1342

Recorded PLATELET COUNT (compound CC(=O)O[C@]1(C(C)=O)CC[C@H]2[C@@H]3C=C(Cl)C4=CC(=O)[C@@H]5C[C@@H]5[C@]4(C)[C@H]3CC[C@@]21C [CYPROTERONE ACETATE] ): 1118.17

Please fill in: PLATELET COUNT reported for C[C@]12C/C(=C/O)C(=O)C[C@@H]1CC[C@@H]1[C@@H]2CC[C@@]2(C)[C@H]1CC[C@]2(C)O = 1378.2

----------
- Species on record: Rattus norvegicus
- Assay details: DrugMatrix - Regimen: Daily Repeat
- Format: toxicity, organism-based, Sprague-Dawley
- Design: regimen Daily Repeat, gender Male, age 6-8 weeks
- Measurement setup: in vivo, po, 0 mg/kg, 72 h, tissue Plasma, route oral GAVAGE, dose level Control, time 3 day, vehicle .5 % CMC
So I've got a bunch of compounds here, and I need their TOTAL BILIRUBIN values.
Report the value in mg/dL with no unit label.

The value of TOTAL BILIRUBIN measured for the compound CO[C@H]1C[C@@H]2CC[C@@H](C)[C@@](O)(O2)C(=O)C(=O)N2CCCC[C@H]2C(=O)O[C@H]([C@H](C)C[C@@H]2CC[C@@H](O)[C@H](OC)C2)CC(=O)[C@H](C)/C=C(\C)[C@@H](O)[C@@H](OC)C(=O)[C@H](C)C[C@H](C)/C=C/C=C/C=C/1C [SIROLIMUS] turned out to be 0.18

For record CC(C)(Sc1cc(C(C)(C)C)c(O)c(C(C)(C)C)c1)Sc1cc(C(C)(C)C)c(O)c(C(C)(C)C)c1 [PROBUCOL] the listed TOTAL BILIRUBIN is 0.15

Entry under test: Clc1cc2c(cc1Cl)Oc1cc(Cl)c(Cl)cc1O2 [2,3,7,8-TETRACHLORODIBENZO-P-DIOXIN] . Its TOTAL BILIRUBIN was 0.52

For this compound ( COc1ccc(/C=C/C(=O)Nc2ccccc2C(=O)O)cc1OC ), measured TOTAL BILIRUBIN is 0.15

Sample CC[C@]1(O)CC[C@H]2[C@@H]3CCC4=CCCC[C@@H]4[C@H]3CC[C@@]21C ; TOTAL BILIRUBIN observed: 0.4

Entry under test: CC(C(=O)O)c1ccc(-c2ccccc2)c(F)c1 (stereo not given) [FLURBIPROFEN] . Its TOTAL BILIRUBIN was 0.15

Noted for CC(=O)O[C@]1(C(C)=O)CC[C@H]2[C@@H]3C=C(Cl)C4=CC(=O)[C@@H]5C[C@@H]5[C@]4(C)[C@H]3CC[C@@]21C [CYPROTERONE ACETATE] : its TOTAL BILIRUBIN reads 0.15

The compound identified as COc1ccccc1OCC(O)COC(N)=O (stereo not given) [METHOCARBAMOL] registered its TOTAL BILIRUBIN at 0.18

Record CCOC(=O)[C@H](CCc1ccccc1)N[C@@H](C)C(=O)N1Cc2ccccc2C[C@H]1C(=O)O . Reported TOTAL BILIRUBIN: 0.15

# TOTAL BILIRUBIN (compound: O=c1cc(-c2ccccc2)oc2ccc3ccccc3c12 [BETA-NAPHTHOFLAVONE] ) is 0.52
